- system-name: Voltage-gated inwardly rectifying potassium channel KCNH2 (Homo sapiens, UniProt Q12809)
- Sequence (Q12809 whole entry): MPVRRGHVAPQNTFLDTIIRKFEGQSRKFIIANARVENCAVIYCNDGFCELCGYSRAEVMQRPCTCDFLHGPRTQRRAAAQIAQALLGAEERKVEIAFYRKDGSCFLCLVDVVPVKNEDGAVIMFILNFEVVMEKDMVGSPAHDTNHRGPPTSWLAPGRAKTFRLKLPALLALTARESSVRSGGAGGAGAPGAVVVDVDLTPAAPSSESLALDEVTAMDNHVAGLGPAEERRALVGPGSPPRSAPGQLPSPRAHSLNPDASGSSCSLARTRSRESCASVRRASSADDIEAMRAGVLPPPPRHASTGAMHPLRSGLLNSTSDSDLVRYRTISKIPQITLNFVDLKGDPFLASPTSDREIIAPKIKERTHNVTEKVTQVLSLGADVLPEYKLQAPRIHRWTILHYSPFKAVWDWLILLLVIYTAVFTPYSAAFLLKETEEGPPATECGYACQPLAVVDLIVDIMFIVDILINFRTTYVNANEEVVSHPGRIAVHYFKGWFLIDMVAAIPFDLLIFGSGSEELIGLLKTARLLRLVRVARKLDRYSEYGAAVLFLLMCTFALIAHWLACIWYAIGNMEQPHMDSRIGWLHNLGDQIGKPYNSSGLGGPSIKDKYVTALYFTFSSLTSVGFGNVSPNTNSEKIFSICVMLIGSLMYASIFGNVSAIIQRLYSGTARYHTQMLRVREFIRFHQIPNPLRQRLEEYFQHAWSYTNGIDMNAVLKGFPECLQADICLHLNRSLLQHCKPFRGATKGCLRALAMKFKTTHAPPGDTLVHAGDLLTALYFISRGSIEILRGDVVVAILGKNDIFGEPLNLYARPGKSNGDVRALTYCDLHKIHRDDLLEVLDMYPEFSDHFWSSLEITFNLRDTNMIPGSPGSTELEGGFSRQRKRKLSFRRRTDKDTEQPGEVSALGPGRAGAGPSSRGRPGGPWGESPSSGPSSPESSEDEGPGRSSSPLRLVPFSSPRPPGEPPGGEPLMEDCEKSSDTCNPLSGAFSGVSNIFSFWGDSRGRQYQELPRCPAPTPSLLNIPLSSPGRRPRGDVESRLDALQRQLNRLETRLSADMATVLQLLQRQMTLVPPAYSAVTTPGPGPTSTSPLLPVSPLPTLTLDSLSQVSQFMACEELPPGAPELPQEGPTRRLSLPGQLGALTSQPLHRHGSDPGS
- procedure-summary: Inhibition of human ERG by patch clamp assay
pIC50: −log10 of the molar value.
readout-label: pIC50

Ask | Specify measured pIC50 for CC(C)(C)OC(=O)n1c2c(c3ccccc31)C[C@H]1C(=O)N3C[C@@H](CC(=O)O)C[C@H]3[C@@H]2N1C(=O)CC1CCC(F)(F)CC1 .
Reply | < 4.52

---

- procedure-summary: Volume of distribution at steady state in Wistar rat at 3 mg/kg, iv administered as single dose treated 2 hrs after dosing with 40 mg/kg, po OATP/MRP2 inhibitor rifampicin and measured up to 24 hrs ESI-LC/MS-MS analysis
- Assay type: ADME, organism-based
- test-settings: in vivo, read-out: Vdss
readout-label: Vd (L/kg)
All answers are understood in L/kg, so give the number only.

Ask | Specify measured Vd for CC(C)(C)OC(=O)n1c2c(c3ccccc31)C[C@H]1C(=O)N3C[C@@H](CC(=O)O)C[C@H]3[C@@H]2N1C(=O)CC1CCC(F)(F)CC1 .
Reply | 0.815
